assay: Pharmacokinetics of MNP in the rat (plasma, LC/MS/MS); type: in vivo, male Sprague-Dawley rats; details: male, Sprague-Dawley, plasma, oral, 200 mg/kg p.o., 15 min, mean ± s.e.m., 3 rats, read-out: MNP plasma levels
OBSERVATION TYPE: concentration at 15 min (ng/mL)
Please give a number only; it is taken to be in ng/mL.

stdin: // lookup concentration at 15 min for C[C@@H]1CC=NN1C(=O)c1cccnc1
stdout: 41300

###

experiment: Pharmacokinetics of MNP in the rat (plasma, LC/MS/MS); assay type: in vivo, male Sprague-Dawley rats; settings: male, Sprague-Dawley, plasma, oral, 200 mg/kg p.o., 480 min, mean ± s.e.m., 3 rats, read-out: MNP plasma levels
OBSERVATION TYPE: concentration at 480 min (ng/mL)
Please give a number only; it is taken to be in ng/mL.

stdin: // lookup concentration at 480 min for C[C@@H]1CC=NN1C(=O)c1cccnc1
stdout: 2920
